EC50 by entry:
biological target: F508delCFTR (Homo sapiens, UniProt P13569, DEL508-508); construct: expressed in transfected cells; host or cells: CFBE41o- human lung-derived epithelial cells (CFBE41o-F508delCFTR-HRP), doxycycline-inducible; experiment: Cell Surface Expression-Horse Radish Peroxidase (CSE-HRP) assay, test compound without co-corrector; format: cell-based; conditions: test compound without co-corrector
Sequence (P13569 with tags, fused parts or gaps DEL508-508): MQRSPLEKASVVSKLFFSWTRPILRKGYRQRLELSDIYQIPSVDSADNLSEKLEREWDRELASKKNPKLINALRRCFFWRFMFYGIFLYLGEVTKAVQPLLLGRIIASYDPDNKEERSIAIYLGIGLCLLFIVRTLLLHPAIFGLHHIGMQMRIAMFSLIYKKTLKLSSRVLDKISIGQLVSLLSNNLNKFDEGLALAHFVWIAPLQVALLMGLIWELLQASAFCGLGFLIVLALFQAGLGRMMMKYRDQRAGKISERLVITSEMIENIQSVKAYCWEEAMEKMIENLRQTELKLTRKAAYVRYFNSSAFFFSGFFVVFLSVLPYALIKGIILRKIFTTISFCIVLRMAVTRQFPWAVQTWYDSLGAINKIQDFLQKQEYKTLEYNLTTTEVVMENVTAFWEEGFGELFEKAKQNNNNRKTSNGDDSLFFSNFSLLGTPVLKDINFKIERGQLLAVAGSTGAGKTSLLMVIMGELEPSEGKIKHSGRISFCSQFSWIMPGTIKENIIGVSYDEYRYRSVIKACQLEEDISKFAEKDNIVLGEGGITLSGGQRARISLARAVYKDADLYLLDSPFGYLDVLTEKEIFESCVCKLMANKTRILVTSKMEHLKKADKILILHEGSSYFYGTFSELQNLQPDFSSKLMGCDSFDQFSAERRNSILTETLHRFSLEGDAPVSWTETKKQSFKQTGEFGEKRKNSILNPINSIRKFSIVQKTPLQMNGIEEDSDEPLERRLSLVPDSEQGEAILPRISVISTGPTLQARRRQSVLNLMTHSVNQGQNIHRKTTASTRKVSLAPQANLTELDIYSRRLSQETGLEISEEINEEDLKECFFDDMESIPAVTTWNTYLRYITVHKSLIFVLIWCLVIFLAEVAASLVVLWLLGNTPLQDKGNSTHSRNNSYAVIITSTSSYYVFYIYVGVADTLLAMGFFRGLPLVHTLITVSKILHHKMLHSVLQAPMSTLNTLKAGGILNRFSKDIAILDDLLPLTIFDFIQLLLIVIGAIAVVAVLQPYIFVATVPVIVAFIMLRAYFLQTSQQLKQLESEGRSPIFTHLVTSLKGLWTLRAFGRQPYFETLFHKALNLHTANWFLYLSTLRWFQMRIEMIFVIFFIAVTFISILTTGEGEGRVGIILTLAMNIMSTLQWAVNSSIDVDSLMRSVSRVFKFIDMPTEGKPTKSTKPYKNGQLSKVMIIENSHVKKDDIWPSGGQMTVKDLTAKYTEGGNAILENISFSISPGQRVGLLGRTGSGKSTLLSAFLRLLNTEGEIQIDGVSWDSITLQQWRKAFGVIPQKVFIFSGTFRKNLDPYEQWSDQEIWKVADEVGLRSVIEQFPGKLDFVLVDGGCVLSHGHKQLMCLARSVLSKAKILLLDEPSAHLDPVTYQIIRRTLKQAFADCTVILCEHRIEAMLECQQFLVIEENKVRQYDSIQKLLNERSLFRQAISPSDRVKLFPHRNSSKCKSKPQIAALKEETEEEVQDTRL

Use these answered entries as a reference point.
COc1ccc(OC)c2c1CC[C@@H]2C(=O)NS(=O)(=O)c1cccc2ncccc12	3 to 10 µM
COc1ccc(N2CCCC2)c2c1C(C(=O)NS(=O)(=O)c1cccc3ccccc13)CCC2 (centres unmarked)	< 3 µM
Cc1ccccc1S(=O)(=O)NC(=O)[C@]1(C)CCc2ccc(Cl)cc21	3 to 10 µM
COc1cccc2c1CCC[C@H]2C(=O)NS(=O)(=O)c1ccccc1C	3 to 10 µM
COc1ccc(-c2ccc(C(F)(F)F)nc2)c2c1CCCC2C(=O)NS(=O)(=O)c1cccc2ccccc12 (centres unmarked)	< 3 µM

Task: Consider the molecule O=C(NS(=O)(=O)c1cccc2ccccc12)C1CCc2c(Br)cccc21 (centres unmarked) and give its measured EC50.
Result: 3 to 10 µM

Task: Consider the molecule COc1ccc(C2CCC2)c2c1C(C(=O)NS(=O)(=O)c1cccc3ccccc13)CC2 (centres unmarked) and give its measured EC50.
Result: 3 to 10 µM

Task: Consider the molecule COc1cccc2c1C(C(=O)NS(=O)(=O)c1cccc3ccccc13)CC2(C)C (centres unmarked) and give its measured EC50.
Result: < 3 µM

Task: Consider the molecule O=C(C1CCCc2c(OCc3ccccc3)ccc(Br)c21)N(Cc1ccccc1)S(=O)(=O)c1cccc2ccccc12 (centres unmarked) and give its measured EC50.
Result: ≥ 10 µM

Task: Consider the molecule COc1ccc(C)c2c1CC[C@H]2C(=O)NS(=O)(=O)c1cccc2ccccc12 and give its measured EC50.
Result: 3 to 10 µM

Task: Consider the molecule Cc1ccccc1S(=O)(=O)NC(=O)C1CCc2c(C3CCC3)cccc21 (centres unmarked) and give its measured EC50.
Result: 3 to 10 µM

Task: Consider the molecule O=C(NS(=O)(=O)c1cccc2ccccc12)C1(Cc2cccc(C(F)(F)F)n2)CCc2c(Cl)cccc21 (centres unmarked) and give its measured EC50.
Result: < 3 µM

Task: Consider the molecule COc1cccc2c1CCC2C(=O)NS(=O)(=O)c1ccc2oc(=O)ccc2c1 (centres unmarked) and give its measured EC50.
Result: ≥ 10 µM

Task: Consider the molecule CCCS(=O)(=O)NC(=O)C1CCc2c(Cl)cccc21 (centres unmarked) and give its measured EC50.
Result: ≥ 10 µM

====

pEC50 by entry:
biological target: F508delCFTR (Homo sapiens, UniProt P13569, DEL508-508); construct: expressed in transfected cells; host or cells: CFBE41o- human lung-derived epithelial cells (CFBE41o-F508delCFTR-HRP), doxycycline-inducible; assay: Cell Surface Expression-Horse Radish Peroxidase (CSE-HRP) assay, test compound without co-corrector; type: cell-based; settings: test compound without co-corrector
pEC50: −log10 of the molar value.

COc1ccc(C2CCC2)c2c1[C@@H](C(=O)NS(=O)(=O)c1cccc3cnn(C)c13)C2 (single isomer, unassigned) [Example I-143]	5.00 to 5.52
Cc1ccccc1S(=O)(=O)NC(=O)C1CCCc2cc(F)ccc21 (centres unmarked) [II-12]	5.00 to 5.52
COc1ccc(C2CCC2)c2c1[C@H](C(=O)NS(=O)(=O)c1cccc3cnn(C)c13)C2 [Example I-144]	> 5.52
COc1cccc2c1CCC2C(=O)NS(=O)(=O)c1c(C)nc(O)nc1O (centres unmarked) [III-45]	≤ 5.00

Task: Consider the compound COc1cccc2c1CCC2C(=O)NS(=O)(=O)c1ccc(N2CCN(CC[C@@H]3OCCc4ccccc43)CC2)cc1 (some centres unmarked) [III-55] and give its measured pEC50.
Result: ≤ 5.00

Task: Consider the compound CCC1(C(=O)NS(=O)(=O)c2cccc3sccc23)CCc2c(Cl)cccc21 (centres unmarked) [Example I-43] and give its measured pEC50.
Result: > 5.52

====

biological target: F508delCFTR (Homo sapiens, UniProt P13569, DEL508-508); construct: expressed in transfected cells; host or cells: CFBE41o- human lung-derived epithelial cells (CFBE41o-F508delCFTR-HRP), doxycycline-inducible; assay: Cell Surface Expression-Horse Radish Peroxidase (CSE-HRP) assay, test compound without co-corrector; assay type: cell-based; conditions: maximum at any tested concentration, normalized to positive control, without co-corrector;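 on Emax: percent of on-plate 2 µM positive control corrector response over DMSO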
Emax by entry:

Task: Consider the molecule CCC1(C(=O)NS(=O)(=O)c2cccc(Cl)c2COC)CCc2c(Cl)cccc21 (stereo not shown) and give its measured Emax.
Result: < 50%

Task: Consider the molecule O=C(NS(=O)(=O)c1cccc2ccccc12)C1CCc2c(Br)ccc(OC(F)F)c21 (stereo not shown) and give its measured Emax.
Result: ≥ 150%

Task: Consider the molecule COc1cccc(COc2ccc(Br)c3c2CCCC3C(=O)NS(=O)(=O)c2cccc3ccccc23)c1 (stereo not shown) and give its measured Emax.
Result: < 50%

Task: Consider the molecule COc1cccc2c1CCC2C(=O)NS(=O)(=O)c1ccc2oc(=O)ccc2c1 (stereo not shown) and give its measured Emax.
Result: < 50%

====

Molecular target: F508delCFTR (Homo sapiens, UniProt P13569, DEL508-508)
Construct: expressed in transfected cells; host or cells: CFBE41o- human lung-derived epithelial cells (CFBE41o-F508delCFTR-HRP), doxycycline-inducible
Experiment: Cell Surface Expression-Horse Radish Peroxidase (CSE-HRP) assay, test compound with co-corrector
Type: cell-based
Details: with 2 μM co-corrector
Description: Cell Surface Expression-Horse Radish Peroxidase (CSE-HRP) Assay […] The % activity measured at each of the 8 test concentrations of the test compound added either without or with a co-corrector (2 μM of 3-[(2R,4R)-4-({[1-(2,2-difluoro-1,3-benzodioxol-5-yl)cyclopropyl]carbonyl}amino)-7-methoxy-3,4-dihydro-2H-chromen-2-yl]benzoic acid) was normalized to the on-plate positive control using the following formulae: […]
pEC50: −log10 of the molar value.
OBSERVED_PROPERTY: pEC50

Use these answered entries as a reference point.
CCC1(C(=O)NS(=O)(=O)c2ccccc2Cl)CCc2c(Cl)cccc21 (stereo not drawn)	> 5.52
COc1cccc2c1CCC2C(=O)NS(=O)(=O)c1cccc([N+](=O)[O-])c1 (stereo not drawn)	≤ 5.00
Cc1ccccc1S(=O)(=O)NC(=O)C1CCc2c(-c3ccc(N4CCCCC4)nc3)cccc21 (stereo not drawn)	> 5.52
CCOc1ccc(Br)c2c1C(C(=O)NS(=O)(=O)c1cccc3ccccc13)CC2 (stereo not drawn)	> 5.52
COc1ccc(Br)c2c1C(C(=O)NS(=O)(=O)c1ccc(F)c3ncccc13)CC2 (stereo not drawn)	> 5.52

Task: Missing value: pEC50, F508delCFTR (Homo sapiens, UniProt P13569, DEL508-508), entry COc1cccc2c1CCC2C(=O)NS(=O)(=O)c1ccc(NCCC(C)(C)O)c([N+](=O)[O-])c1 (stereo not drawn) . Fill in?
Result: ≤ 5.00

====

target: F508delCFTR (Homo sapiens, UniProt P13569, DEL508-508); construct: expressed in transfected cells; host or cells: CFBE41o- human lung-derived epithelial cells (CFBE41o-F508delCFTR-HRP), doxycycline-inducible; experiment: Cell Surface Expression-Horse Radish Peroxidase (CSE-HRP) assay, test compound with co-corrector; assay type: cell-based; conditions: maximum at any tested concentration, normalized to positive control, with 2 μM co-corrector;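 on Maximum % activity (with co-corrector): percent of 2 µM positive control corrector over DMSO; co-corrector is that same compound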
OBSERVED_PROPERTY: Maximum % activity (with co-corrector)

Use these answered entries as a reference point.
COc1ccc(C2CCC2)c2c1C(C(=O)NS(=O)(=O)c1cccc3ncccc13)CC2 (stereo not shown)	+++ (≥350)
CCC1(C(=O)NS(=O)(=O)c2cc(C)ccc2C)CCc2c(Cl)cccc21 (stereo not shown)	+ (<150)
CCC1(C(=O)NS(=O)(=O)c2ccccc2Cl)CCc2c(Cl)cccc21 (stereo not shown)	++ (≥150 and <350)
CCC1(C(=O)NS(=O)(=O)c2cccc3nsnc23)CCc2c(Cl)cccc21 (stereo not shown)	+ (<150)
CC(C)Oc1ccc(Br)c2c1CCCC2C(=O)NS(=O)(=O)c1cccc2ccccc12 (stereo not shown)	+++ (≥350)
CCC1(C(=O)NS(=O)(=O)c2ccc(F)c3ccccc23)CCc2c(Cl)cccc21 (stereo not shown)	++ (≥150 and <350)

Let's switch to this molecule now.
Task: Consider the molecule COc1cccc2c1CCCC2C(=O)NS(=O)(=O)c1cccc2ccccc12 (stereo not shown) and give its measured Maximum % activity (with co-corrector).
Result: +++ (≥350)

====

Emax by entry:
molecular target: F508delCFTR (Homo sapiens, UniProt P13569, DEL508-508); construct: expressed in transfected cells; host or cells: CFBE41o- human lung-derived epithelial cells (CFBE41o-F508delCFTR-HRP), doxycycline-inducible; assay: Cell Surface Expression-Horse Radish Peroxidase (CSE-HRP) assay, test compound without co-corrector; format: cell-based; details: maximum at any tested concentration, normalized to on-plate positive control, without co-corrector;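 on Emax: percent of on-plate 2 µM positive control corrector response over DMSO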

Use these answered entries as a reference point.
N#CC1(C(=O)NS(=O)(=O)c2cccc3ccccc23)CCCc2cccc(Cl)c21 (stereo not drawn) [Example III-157]	< 50%
COc1cccc2c1CCC[C@H]2C(=O)NS(=O)(=O)c1cccnc1N [III-107]	50 to 150%
CCC1(C(=O)NS(=O)(=O)c2cccc(Cl)c2)CCc2c(Cl)cccc21 (stereo not drawn) [III-117]	< 50%
COc1ccc(N2CCOCC2)c2c1CCCC2C(=O)NS(=O)(=O)c1cccc2ccccc12 (stereo not drawn) [III-153]	< 50%
COc1ccc2c(c1OC)CC2C(=O)NS(=O)(=O)c1ccccc1C (stereo not drawn) [III-175]	< 50%

Let's switch to this molecule now.
Task: Missing value: Emax, F508delCFTR (Homo sapiens, UniProt P13569, DEL508-508), entry COc1ccc(-c2cccc(OC(F)(F)F)c2)c2c1CCCC2C(=O)NS(=O)(=O)c1cccc2ccccc12 (stereo not drawn) [III-148] . Fill in?
Result: ≥ 150%
